Each item that follows carries a reported GI50.
Test system: SF-268
assay_name: NCI tumour cell line growth inhibition, 48 h
Calls of active or inactive are those of the source. No stated cut-off is given here; in the data, active = GI50 up to about 1.1 µM and inactive = higher.

Here is how some compounds turned out for GI50.
NC(=S)N/N=C1\c2ccccc2CCC1CCC1(O)CCc2ccccc2C1=O (centres undefined) ... 42.1 µM (inactive)
O=C(Nc1nc2ccc([N+](=O)[O-])cc2s1)C(=O)C(C(=O)c1ccccc1F)C1OC(=O)c2ccccc21 (centres undefined) ... 34.2 µM (inactive)
Cc1ccc(O)c(-c2cc(-c3cccc(Br)c3)on2)c1 ... 24.2 µM (inactive)
C=CCOc1ccc2c(C)cc(=O)oc2c1C ... 55.3 µM (inactive)
COc1cc2c(cc1OC)C1c3ccccc3CCN1CCC2.[O-][Cl+3]([O-])([O-])O (centres undefined) ... > 100 µM (inactive)
COc1ccc(OC)c2sc(N3C(=O)/C(=C/c4ccccc4S)N=C3c3ccccc3)nc12 ... 59.7 µM (inactive)

Here is another compound to look at.
Need GI50 of N#C/C(=C\c1c[nH]c2ccccc12)C(=O)c1ccc(O)c(O)c1 , thanks.
39.7 µM (inactive)

====

Tested on: UACC-257
assay_name: NCI tumour cell line growth inhibition, 48 h
Activity calls are given as the source filed them. Rule as the data show it: active = GI50 up to about 1.1 µM and inactive = higher.
// classify into active, inactive

COC1OC2COC(C)(C)OC2C2OC(C)(C)OC12 (stereo not given) ... inactive

Test call, this molecule: COc1ccc(S(=O)(=O)NNS(C)(=O)=O)cc1
inactive

Test call, this molecule: CCOC1C=CCCO1 (stereo not given)
inactive

Test call, this molecule: CCCCCC(O)C(O)CCC[C@H](O)[C@H]1CC[C@H]([C@H]2CC[C@H]([C@H](O)CCCCCCCCCCCCC3=C[C@H](C)OC3=O)O2)O1 (stereo not given in full)
active

Test call, this molecule: N#CC(C#N)/N=N/c1ccc(-c2nc3ccccc3o2)cc1
inactive

====

Tested on: IGROV-1
assay_name: NCI tumour cell line growth inhibition, 48 h
Activity calls are given as the source filed them. No stated cut-off is given here; in the data, active = GI50 up to about 1.1 µM and inactive = higher.
assay_readout: GI50

CC(=O)/C=C1/c2ccccc2N(C(C)=O)C1O (stereo not drawn) ... > 100 µM (inactive)
CCCSc1ccc2[nH]c(/N=C/c3ccco3)cc2c1 ... 36.5 µM (inactive)
Cc1cccc2[n+]1[C@H]1[C@H]([C@@H]3O[C@H]1c1ccccc13)[S+]([O-])N2 (stereo partly drawn) ... 32.3 µM (inactive)
CN(C)C(c1ccccc1)C(O)c1ccccc1 (stereo not drawn) ... > 100 µM (inactive)
CN(C)c1c(C2OC(CO)C(O)C2O)c(=O)c1=O (stereo not drawn) ... > 100 µM (inactive)

Need GI50 of CC(C)NC(=O)OCc1c(COC(=O)NC(C)C)c(-c2cc[n+](COC(=O)C(C)C)cc2)n2c1CCC2 , thanks.
30.1 µM (inactive)

Need GI50 of CSCCCN(CCCSC)CCCSC , thanks.
> 100 µM (inactive)

Need GI50 of O=C(CCC(=O)c1ccc(Cl)cc1)NO , thanks.
> 100 µM (inactive)

Need GI50 of CN(C)CCC(CCN(C)C)=NOC(=O)c1ccccc1 , thanks.
> 100 µM (inactive)

Need GI50 of COc1ccccc1NC(=S)N/N=C/c1cccc(C)n1 , thanks.
4.06 µM (inactive)

====

Tested on: HCC 2998
assay_name: NCI tumour cell line growth inhibition, 48 h
Calls of active or inactive are those of the source. Rule as the data show it: active = GI50 up to about 1.1 µM and inactive = higher.
assay_readout: GI50

CCOC(=O)c1c2c(n(-c3ccc(C)cc3)c1C)-c1ccccc1C(=O)C2(C(=O)OCC)C(=O)OCC ... 31.4 µM (inactive)
CC(=O)N1C/C(=C\c2ccc(N(C)C)cc2)C(=O)/C(=C/c2ccc(N(C)C)cc2)C1 ... 58.2 µM (inactive)
Cc1ccc(S(=O)(=O)c2ccc(NC(=O)SCCC(=O)O)cc2)cc1 ... > 100 µM (inactive)
CCOC(=O)c1c(N=P(c2ccccc2)(c2ccccc2)c2ccccc2)nnc(-c2ccccc2)c1-c1ccccc1 ... > 100 µM (inactive)
CC(=O)OC1(C#N)CC2OC1C1C2N1C(=O)c1ccccc1 (configuration not stated) ... > 100 µM (inactive)

Need GI50 of Cc1cccc(-c2cc(O)c3c(C)cc(C)nc3n2)c1 , thanks.
4.9 µM (inactive)

Need GI50 of CCOC1C=CCCO1 (configuration not stated) , thanks.
1.55 µM (inactive)

Need GI50 of O=C1CN2CCN(CC2)CC(=O)Nc2ccc(cc2)S(=O)(=O)c2ccc(cc2)NC(=O)CN2CCN(CC2)CC(=O)Nc2ccc(cc2)S(=O)(=O)c2ccc(cc2)N1 , thanks.
> 61.9 µM (inactive)

Need GI50 of COc1ccc(CC(=O)c2cc(OC)c(OC)cc2C)cc1OC , thanks.
> 100 µM (inactive)

====

Test system: HOP-92
assay_name: NCI tumour cell line growth inhibition, 48 h
The source made the active and inactive calls. Rule as the data show it: active = GI50 up to about 1.1 µM and inactive = higher.
// classify into yes = active, no = inactive

Some solved entries appear below for comparison.
CN(C)c1c(C2OC(CO)C(O)C2O)c(=O)c1=O (centres undefined) ... no
O=C1C2=Nc3ccccc3C(O)(C(=O)O)N2c2ccccc21 (centres undefined) ... no
CCSSCS(C)(=O)=O ... no
O=C1C=CC(=O)N1n1c(Cc2ccccc2)n[nH]c1=O ... no
CC(=O)/C=N/CC(=O)O ... no

Test call, this compound: O=C1Nc2ccccc2S/C1=C\c1ccccc1C(F)(F)F
no

Test call, this compound: C/C(=N/NC(=S)Nc1ccc(C)cc1)c1ccccn1
yes

Test call, this compound: COc1ccc2nc3ccc(OC)cc3c([S+]([O-])CCCl)c2c1 (centres undefined)
no

Test call, this compound: Cc1ccc(C)c(NC(=O)CCc2nnc(S)[nH]2)c1
no

====

Test system: OVCAR-8
assay_name: NCI tumour cell line growth inhibition, 48 h
Calls of active or inactive are those of the source. Rule as the data show it: active = GI50 up to about 1.1 µM and inactive = higher.
assay_readout: GI50

Here is how some compounds turned out for GI50.
Cc1c2cccc-2ccc2c1[nH]c1ccc(Br)cc12 ... 7.36 µM (inactive)
CCOC(=O)CC1(Cc2ccc(OCc3ccccc3)cc2)C(=O)OC(c2ccccc2)N1C(=O)c1ccccc1 (stereo not given) ... > 100 µM (inactive)
CCOC(=O)C1=C(C(=O)OCC)C2c3ccccc3C=CN2C(C(=O)OCC)=C(SC)S1 (stereo not given) ... > 100 µM (inactive)

Need GI50 of Cn1ncc2c(c1=O)Nc1ccccc1S2(=O)=O , thanks.
> 100 µM (inactive)

Need GI50 of O=C(O)c1cc(-c2ccc(-c3ccccc3)cc2)nc2cc3ccccc3cc12 , thanks.
57.1 µM (inactive)

====

Each item that follows carries a reported GI50.
Tested on: UACC-257
assay_name: NCI tumour cell line growth inhibition, 48 h
Activity calls are given as the source filed them. No stated cut-off is given here; in the data, active = GI50 up to about 1.1 µM and inactive = higher.

Here is how some compounds turned out for GI50.
OC(c1ccccc1)c1c(-c2ccccc2)[nH]c(-c2ccccc2)c1C(O)c1ccccc1 (stereo not given) ... 3.04 µM (inactive)
O=C(CCC(=O)c1ccc(Cl)cc1)NO ... > 100 µM (inactive)
Cc1cc(C2(c3cc(C)c(O)c(C(=O)O)c3)OS(=O)(=O)c3ccccc32)cc(C(=O)O)c1O ... > 100 µM (inactive)
CCc1cccc(CC)c1Nc1nc2c(s1)C(=O)c1ccccc1C2=O ... 19.5 µM (inactive)
Cn1c2ccccc2c2[nH]c3ccccc3c(=O)c21 ... > 100 µM (inactive)
CC(=O)c1sc2c(c1OC(=O)c1cccs1)c(=O)n(-c1ccccc1)c(=S)n2-c1ccccc1 ... 11.7 µM (inactive)
Cn1cc(C(=O)NCCC(=N)N)cc1NC(=O)C1=[N+](C)C=C(NC(=O)c2cccc(C(=O)NC3=CC(C(=O)Nc4cc(C(=O)NCCC(=N)N)cn4C)=[N+](C)C3)c2)C1 ... 93.1 µM (inactive)
COc1cc(C2C(C(=O)O)=C(CO)Oc3cc4c(cc32)OCO4)cc(OC)c1OC (stereo not given) ... > 100 µM (inactive)
C=C(C)[C@@H]1CC[C@]2(C(=O)O)CC[C@]3(C)[C@H](CC[C@@H]4[C@@]5(C)CC[C@H](C(=O)/C=C/c6ccc(O)cc6)C(C)(C)[C@@H]5CC[C@]43C)[C@@H]12 ... 3.58 µM (inactive)
O=C(/C=C\Nc1ccccc1O)C(F)(F)F ... 26.1 µM (inactive)

Need GI50 of NC(=O)c1cc(N2CC2)c([N+](=O)[O-])cc1[N+](=O)[O-] , thanks.
> 100 µM (inactive)

Need GI50 of c1ccc(C(/C(=N/c2ccc(Cc3ccc(/N=C(\C(c4ccccc4)c4ccccc4)N4CC4)cc3)cc2)N2CC2)c2ccccc2)cc1 , thanks.
11.6 µM (inactive)

====

Tested on: HL-60
assay_name: NCI tumour cell line growth inhibition, 48 h
The source made the active and inactive calls. No stated cut-off is given here; in the data, active = GI50 up to about 1.1 µM and inactive = higher.
assay_readout: GI50

Here is how some compounds turned out for GI50.
C[S+](C)([O-])=Nn1c(=O)n2n(c1=O)[C@H]1CC[C@@H]2C1 ... 46.3 µM (inactive)
O=C(Nc1nc2ncn(CCOC(=O)c3ccccc3)c2c(=O)[nH]1)c1ccccc1 ... 2.59 µM (inactive)
Cc1sc2nc3n(c(=O)c2c1C)N=C(c1ccc(Cl)cc1)CS3 ... > 100 µM (inactive)

Need GI50 of CN(C)Cc1cc(/N=N/c2ccccc2Cl)ccc1O , thanks.
10.8 µM (inactive)

Need GI50 of O=C1C=CC(=C(c2ccccc2)c2ccc(O)cc2)C=C1 , thanks.
8.15 µM (inactive)
